Quick record: Ki, JAK3 (Homo sapiens).

Task: Please look up its Ki: CCC[C@H](Nc1cc(-c2c(N)nn3cccnc23)ncn1)c1ccc(F)c(F)c1 [Compound 98]
Output: 10 to 100 nM

Task: Entry to check: CC(C)[C@@H](Nc1cc(-c2cnn3cccnc23)ncn1)c1ccc(F)cc1F [Compound 120]
Output: 100 to 500 nM

***
Task: Please look up its Ki: Nc1nn2cccnc2c1-c1cc(N2CCCC2c2ccccc2)ncn1 (stereo not shown) [Compound 57]
Output: 10 to 100 nM

Task: Entry to check: C[C@H](Nc1cc(-c2c(N)nn3cccnc23)nc(OCC(F)(F)F)n1)c1ccc(F)cc1 [Compound 156]
Output: 100 to 500 nM

Task: Entry to check: C#CCCCOc1nc(N[C@@H](C)c2ccc(F)cc2)cc(-c2c(N)nn3cccnc23)n1 [Compound 183]
Output: 10 to 100 nM

Task: Entry to check: CCC[C@H](Nc1cc(-c2cnn3cccnc23)ncn1)c1ccc(F)cc1F [Compound 122]
Output: 10 to 100 nM

Task: Entry to check: C[C@H](Nc1cc(-c2c(N)nn3cccnc23)nc(OCCCC2CCCC2)n1)c1ccc(F)cc1 [Compound 177]
Output: 500 to 5000 nM

Task: Entry to check: CCC[C@H](Nc1cc(-c2c(N)nn3cccnc23)nc(N2CCOCC2)n1)c1ccc(F)cc1F [Compound 107]
Output: 100 to 500 nM

Task: Entry to check: CC(C)[C@@H](Nc1cc(-c2c(N)nn3cccnc23)nc(N2CCOCC2)n1)c1ccc(F)cc1F [Compound 104]
Output: 500 to 5000 nM

Task: Entry to check: C[C@@H](Nc1cc(-c2cnn3cccnc23)ncn1)c1ccc(Cl)cc1 [Compound 146]
Output: 500 to 5000 nM

Task: Entry to check: CC(C)[C@H](Nc1cc(-c2cnn3cccnc23)ncn1)c1ccc(F)cc1F [Compound 121]
Output: 10 to 100 nM

Task: Entry to check: C[C@H](Nc1cc(-c2cnn3cccnc23)nc(OCCN2CCCCC2)n1)c1ccc(F)cc1F [Compound 195]
Output: 10 to 100 nM

Task: Entry to check: C[C@H](Nc1cc(-c2c(N)nn3cccnc23)nc(OCCN2CCOCC2)n1)c1ccc(F)cc1 [Compound 109]
Output: 10 to 100 nM

====

pKi: −log10 of the molar value.
Quick record: pKi, JAK-2 enzyme (Homo sapiens).

Example results:
Task: Please look up its pKi: "O=C(Nc1ccnc(-c2cnn3cccnc23)c1)c1ccc(F)cc1"
Output: 6.30 to 7.00

Task: Entry to check: "Nc1nn2cccnc2c1-c1cc(N[C@H]2CCCc3ccccc32)ncn1"
Output: 7.00 to 8.00

Task: Entry to check: C[C@H](Nc1cc(-c2cnn3cccnc23)nc(OCC2CCCN2)n1)c1ccc(F)cc1F (some centres unmarked)
Output: > 8.00

Task: Entry to check: "C[C@H](Nc1cc(-c2c(N)nn3cccnc23)nc(OCC2(C)CC2)n1)c1ccc(F)cc1"
Output: 7.00 to 8.00

Task: Entry to check: "COCCOc1nc(N[C@@H](C)c2ccc(F)cc2F)cc(-c2cnn3cccnc23)n1"
Output: > 8.00

Task: Entry to check: "CC[C@@H](Nc1cc(-c2c(N)nn3cccnc23)ncn1)c1ccc(F)cc1F"
Output: > 8.00

***
Task: Please look up its pKi: "COc1ccccc1CNc1cc(-c2c(N)nn3cccnc23)ncn1"
Output: > 8.00

Task: Entry to check: "CCN(CC)C(=O)COc1nc(N[C@@H](C)c2ccc(F)cc2F)cc(-c2c(N)nn3cccnc23)n1"
Output: 7.00 to 8.00

====

pKi: −log10 of the molar value.
Quick record: pKi, JAK-2 enzyme (Homo sapiens, UniProt O60674).

Task: Please look up its pKi: CCC[C@H](Nc1cc(-c2c(N)nn3cccnc23)nc(N2CCOCC2)n1)c1ccc(F)cc1 [Compound 103]
Output: 7.00 to 8.00

Task: Entry to check: C[C@H](Nc1cc(-c2c(N)nn3cccnc23)nc(C#N)n1)c1ccc(F)cc1F [Compound 140]
Output: > 8.00

Task: Entry to check: C[C@H](Nc1cc(-c2cnn3cccnc23)nc(OCCOCCN2CCNCC2)n1)c1ccc(F)cc1F [Compound 203]
Output: 7.00 to 8.00

***
Task: Please look up its pKi: Nc1nn2cccnc2c1-c1cc(NCc2ccccc2OC(F)(F)F)ncn1 [Compound 14]
Output: > 8.00

Task: Entry to check: CC(C)=CCOc1nc(N[C@@H](C)c2ccc(F)cc2)cc(-c2c(N)nn3cccnc23)n1 [Compound 152]
Output: 7.00 to 8.00

Task: Entry to check: C[C@H](Nc1cc(-c2c(N)nn3cccnc23)nc(N2CCOCC2)n1)c1ccc(F)cc1F [Compound 106]
Output: > 8.00

Task: Entry to check: COC(C)(C)CCOc1nc(N[C@@H](C)c2ccc(F)cc2)cc(-c2c(N)nn3cccnc23)n1 [Compound 178]
Output: > 8.00

====

Measured pKi values are reported for all entries that follow.
Target: JAK-2 enzyme (Homo sapiens, UniProt O60674)
Sequence (O60674 whole entry): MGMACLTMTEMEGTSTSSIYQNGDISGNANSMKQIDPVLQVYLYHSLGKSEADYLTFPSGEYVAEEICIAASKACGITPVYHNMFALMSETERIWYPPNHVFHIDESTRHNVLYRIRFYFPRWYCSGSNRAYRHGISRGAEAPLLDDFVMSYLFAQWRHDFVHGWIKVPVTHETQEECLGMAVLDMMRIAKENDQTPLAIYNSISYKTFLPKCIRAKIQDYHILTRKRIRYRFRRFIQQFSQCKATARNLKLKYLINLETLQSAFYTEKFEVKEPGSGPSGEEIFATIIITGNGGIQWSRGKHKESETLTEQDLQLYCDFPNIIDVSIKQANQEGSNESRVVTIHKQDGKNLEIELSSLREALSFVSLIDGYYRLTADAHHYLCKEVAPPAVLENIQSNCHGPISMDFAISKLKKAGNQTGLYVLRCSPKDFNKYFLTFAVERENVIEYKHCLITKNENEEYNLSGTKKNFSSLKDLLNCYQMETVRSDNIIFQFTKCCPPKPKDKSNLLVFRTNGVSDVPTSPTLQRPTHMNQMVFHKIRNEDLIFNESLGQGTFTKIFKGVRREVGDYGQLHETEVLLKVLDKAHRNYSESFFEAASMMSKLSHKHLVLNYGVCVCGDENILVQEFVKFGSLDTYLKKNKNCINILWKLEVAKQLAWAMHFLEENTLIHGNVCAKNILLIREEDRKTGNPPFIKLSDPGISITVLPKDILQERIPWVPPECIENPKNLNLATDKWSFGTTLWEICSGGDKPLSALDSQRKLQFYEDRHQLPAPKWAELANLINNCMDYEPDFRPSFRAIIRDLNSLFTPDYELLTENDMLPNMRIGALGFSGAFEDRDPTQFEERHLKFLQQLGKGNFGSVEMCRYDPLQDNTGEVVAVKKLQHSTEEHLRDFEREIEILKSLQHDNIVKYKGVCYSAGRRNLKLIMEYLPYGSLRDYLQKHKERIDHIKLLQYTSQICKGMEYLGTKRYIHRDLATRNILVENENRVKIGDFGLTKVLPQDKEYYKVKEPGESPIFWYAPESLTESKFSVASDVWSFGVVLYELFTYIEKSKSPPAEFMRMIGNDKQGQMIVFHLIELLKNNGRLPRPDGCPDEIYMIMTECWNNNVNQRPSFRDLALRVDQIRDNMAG
pKi: −log10 of the molar value.

Example results:
Task: Please look up its pKi: "C[C@H](Nc1cc(-c2c(N)nn3cccnc23)nc(NCCN2CCOCC2)n1)c1ccc(F)cc1"
Output: > 8.00

Task: Entry to check: "COCCC(=O)Nc1nc(N[C@@H](C)c2ccc(F)cc2F)cc(-c2cnn3cccnc23)n1"
Output: > 8.00

Task: Entry to check: "C[C@H](Nc1cc(-c2c(N)nn3cccnc23)nc(N2CCOCC2)n1)c1ccc(F)cc1"
Output: > 8.00

***
Task: Please look up its pKi: C[C@H](Nc1cc(-c2c(N)nn3cccnc23)nc(OCC2CCCN2)n1)c1ccc(F)cc1F (some centres unmarked)
Output: 7.00 to 8.00

Task: Entry to check: "C[C@H](Nc1cc(-c2c(N)nn3cccnc23)nc(OCC2CCC2)n1)c1ccc(F)cc1"
Output: 7.00 to 8.00

====

Measured Ki values are reported for all entries that follow.
Target: JAK3 (Homo sapiens, UniProt P52333)
Sequence (P52333 1-1124): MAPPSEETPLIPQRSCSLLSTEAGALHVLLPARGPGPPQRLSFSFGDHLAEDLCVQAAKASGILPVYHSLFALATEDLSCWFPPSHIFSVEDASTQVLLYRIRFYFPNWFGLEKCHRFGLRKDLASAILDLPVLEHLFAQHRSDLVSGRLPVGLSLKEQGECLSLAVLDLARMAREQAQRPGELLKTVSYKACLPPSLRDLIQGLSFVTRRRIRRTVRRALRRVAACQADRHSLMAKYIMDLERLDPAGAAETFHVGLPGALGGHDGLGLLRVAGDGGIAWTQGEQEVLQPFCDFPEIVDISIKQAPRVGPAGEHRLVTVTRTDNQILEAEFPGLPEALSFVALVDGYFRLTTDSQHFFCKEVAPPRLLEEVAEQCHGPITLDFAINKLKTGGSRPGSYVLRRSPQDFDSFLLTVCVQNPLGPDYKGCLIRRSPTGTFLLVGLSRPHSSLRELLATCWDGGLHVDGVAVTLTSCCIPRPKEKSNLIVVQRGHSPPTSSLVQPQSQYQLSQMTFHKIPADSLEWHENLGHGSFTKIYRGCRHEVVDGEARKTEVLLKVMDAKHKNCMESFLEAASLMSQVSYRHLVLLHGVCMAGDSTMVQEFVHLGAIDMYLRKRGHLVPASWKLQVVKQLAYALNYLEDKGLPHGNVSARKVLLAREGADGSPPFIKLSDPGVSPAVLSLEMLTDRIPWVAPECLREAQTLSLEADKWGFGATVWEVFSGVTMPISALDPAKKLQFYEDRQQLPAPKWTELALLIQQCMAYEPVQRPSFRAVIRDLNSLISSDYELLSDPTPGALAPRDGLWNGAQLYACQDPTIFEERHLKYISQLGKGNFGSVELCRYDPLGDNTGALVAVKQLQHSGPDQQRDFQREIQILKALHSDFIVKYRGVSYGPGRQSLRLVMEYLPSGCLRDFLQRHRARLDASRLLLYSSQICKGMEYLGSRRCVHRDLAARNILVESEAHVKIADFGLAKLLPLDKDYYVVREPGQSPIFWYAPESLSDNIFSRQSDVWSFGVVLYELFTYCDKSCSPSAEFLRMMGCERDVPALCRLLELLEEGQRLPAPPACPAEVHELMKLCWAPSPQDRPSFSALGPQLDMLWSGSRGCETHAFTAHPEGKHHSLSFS
Assay: JAK3 Inhibition Assay
Type: biochemical
Conditions: 1 nM JAK3, 1 μM poly(Glu)4Tyr, 5 μM ATP, 25° C., 33P incorporation

Example results:
Task: Please look up its Ki: "C[C@H](Nc1cc(-c2cnn3cccnc23)nc(OCC2CCCC2)n1)c1ccc(F)cc1F"
Output: 100 to 500 nM

Task: Entry to check: "CC[C@H](Nc1cc(-c2c(N)nn3cccnc23)ncn1)c1ccc(Cl)cc1F"
Output: 100 to 500 nM

Task: Entry to check: "O=C(Nc1ccnc(-c2cnn3cccnc23)c1)c1ccc(F)cc1"
Output: 500 to 5000 nM

***
Task: Please look up its Ki: "Nc1nn2cccnc2c1-c1cc(NCc2csc3ccccc23)ncn1"
Output: 100 to 500 nM

Task: Entry to check: "C[C@H](Nc1cc(-c2c(N)nn3cccnc23)nc(OCCOC(C)(C)C)n1)c1ccc(F)cc1"
Output: 100 to 500 nM

Data origin: patent US8937064B2
